For each entry below, report its EC50 value.
- study.target: human Y4 receptor (Homo sapiens, UniProt P50391)
- Construct: expressed in transfected cells
- Sequence (P50391 whole entry): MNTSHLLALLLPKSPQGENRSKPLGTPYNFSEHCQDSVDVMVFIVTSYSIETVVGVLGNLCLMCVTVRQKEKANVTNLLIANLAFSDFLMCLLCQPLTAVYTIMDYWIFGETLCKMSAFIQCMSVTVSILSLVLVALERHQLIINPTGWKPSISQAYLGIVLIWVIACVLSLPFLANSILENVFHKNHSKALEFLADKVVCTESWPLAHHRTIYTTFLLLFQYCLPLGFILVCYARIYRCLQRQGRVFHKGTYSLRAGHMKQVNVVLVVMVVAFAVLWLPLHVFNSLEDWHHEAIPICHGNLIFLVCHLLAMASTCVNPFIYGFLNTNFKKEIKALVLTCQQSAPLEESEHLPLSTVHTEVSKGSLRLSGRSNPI
- protocol: NPY4 cAMP HTRF Agonist Assay (inhibitory cAMP assay, Gi activation by Y4 agonism)
- Format: cell-based
- test.parameters: TABLE 4, R2 is Pyridinyl-CN; read-out: hY4 CAMP EC50
Please give a number only; it is taken to be in µM.

# EC50 (compound: N#Cc1ccc(N2CCC[C@H](N[C@@H]3CCCC[C@H]3Nc3cc(-c4cccc(C(N)=O)c4)ccn3)C2)cn1 ) is 0.165

# EC50 (compound: N#Cc1ccc(N2CCC[C@H](N[C@@H]3CCCCC3Nc3ncc(-c4ccc(OC(F)(F)F)cc4)o3)C2)cn1 (some centres unmarked) ) is 0.01

# EC50 (compound: C[C@]1(N[C@@H]2CCCC[C@H]2Nc2cc(-c3cccc(C(N)=O)c3)ccn2)CCCN(c2ccc(C#N)nc2)C1 ) is 0.141

# EC50 (compound: N#Cc1ccc(N2CCCC(N[C@@H]3CCCC[C@H]3Nc3ncc(-c4ccc(OC(F)(F)F)cc4)o3)C2)nc1 (some centres unmarked) ) is 0.015

# EC50 (compound: C[C@]1(N[C@@H]2CCCC[C@H]2Nc2cc(-c3cccc(C(N)=O)c3)ccn2)CCCN(c2ccc(C#N)cn2)C1 ) is 0.066

# EC50 (compound: CC(C)(O)c1cccc(-c2ccnc(N[C@@H]3CCCC[C@H]3NC3CCCN(c4ccc(C#N)nc4)C3)c2)c1 (some centres unmarked) ) is 0.067

# EC50 (compound: N#Cc1cc(N2CCC[C@H](N[C@@H]3CCCC[C@H]3Nc3ncc(-c4ccccc4OC(F)(F)F)o3)C2)ccn1 ) is 0.009

# EC50 (compound: N#Cc1ccc(N2CCCC(N[C@@H]3CCCC[C@H]3Nc3cc(-c4cccc(C(N)=O)c4)ccn3)C2)cn1 (some centres unmarked) ) is 0.124

# EC50 (compound: N#Cc1ccc(N2CCC[C@H](N[C@@H]3CCCC[C@H]3Nc3nccc(-c4ccccc4)n3)C2)cn1 ) is 0.135

# EC50 (compound: C[C@]1(N[C@@H]2CCCC[C@H]2Nc2ncc(-c3cccc(C(N)=O)c3)o2)CCCN(c2ccc(C#N)nc2)C1 ) is 0.003

# EC50 (compound: N#Cc1ccc(N2CCC[C@H](N[C@@H]3CCCC[C@H]3Nc3ncc(-c4cccc(C(N)=O)c4)o3)C2)cn1 ) is 0.007
